FYI, the data here is from patent US20090203776A1.

System: TPA-induced inflammatory response (mouse ear edema)
assay overview: TPA-induced mouse ear edema, topical application
Assay type: in vivo, mice
condition summary: reduction in ear thickness vs control group; 2.5 mg/ear topical (10% in acetone); 4 hours after TPA 2.5 μg/ear
quantity: Anti-inflammatory Effect (% of control)

molecule	Anti-inflammatory Effect (% of control)
CC(O)COC(=O)OC1CC(C)CCC1C(C)C (racemic) [racemic menthol propyleneglycol-carbonate]	23 % of control
CC1CCC(C(C)C)C(OCC(O)CO)C1 (centres unmarked)	27 % of control
CC1CCC(C(C)C)C(OC(=O)OCCCCCCCCCO)C1 (centres unmarked) [menthyl-9-hydroxynonyl-carbonate]	45 % of control
C=C(C)C1CCC(C)CC1OC(=O)OCC(C)O (centres unmarked) [isopulegol propyleneglycol-carbonate]	33 % of control

Switching to the query record.
INPUT: Give reported Anti-inflammatory Effect (% of control) for CC1CCC(C(C)C)C(O)C1 (centres unmarked) [(l)-Menthol, reference compound] (TPA-induced inflammatory response (mouse ear edema))
OUTPUT: 0 % of control
